Hello, the source for this data is ChEMBL document CHEMBL3232969, in case you need it.

Here the recorded fraction unbound is given for each entry.
- Experiment Notes: Percentage unbound in human plasma
- Condition Info: Fu
The answer should be a number; do not append a unit.

State, in one line, measured fraction unbound of CN[C@@H](C)C(=O)N[C@H]1CCC[C@H]2C[C@H]3CCN(CCCc4ccccc4)C[C@H]3N2C1=O
0.47

Next:
State, in one line, measured fraction unbound of CN[C@@H](C)C(=O)N[C@H]1CCC[C@H]2C[C@H]3CCN(CCc4ccc(OC)cc4)C[C@H]3N2C1=O
0.47

State, in one line, measured fraction unbound of CN[C@@H](C)C(=O)N[C@H]1CCC[C@H]2C[C@H]3CCN(CCc4cccc(C)c4)C[C@H]3N2C1=O
0.47
